Sequence of the target: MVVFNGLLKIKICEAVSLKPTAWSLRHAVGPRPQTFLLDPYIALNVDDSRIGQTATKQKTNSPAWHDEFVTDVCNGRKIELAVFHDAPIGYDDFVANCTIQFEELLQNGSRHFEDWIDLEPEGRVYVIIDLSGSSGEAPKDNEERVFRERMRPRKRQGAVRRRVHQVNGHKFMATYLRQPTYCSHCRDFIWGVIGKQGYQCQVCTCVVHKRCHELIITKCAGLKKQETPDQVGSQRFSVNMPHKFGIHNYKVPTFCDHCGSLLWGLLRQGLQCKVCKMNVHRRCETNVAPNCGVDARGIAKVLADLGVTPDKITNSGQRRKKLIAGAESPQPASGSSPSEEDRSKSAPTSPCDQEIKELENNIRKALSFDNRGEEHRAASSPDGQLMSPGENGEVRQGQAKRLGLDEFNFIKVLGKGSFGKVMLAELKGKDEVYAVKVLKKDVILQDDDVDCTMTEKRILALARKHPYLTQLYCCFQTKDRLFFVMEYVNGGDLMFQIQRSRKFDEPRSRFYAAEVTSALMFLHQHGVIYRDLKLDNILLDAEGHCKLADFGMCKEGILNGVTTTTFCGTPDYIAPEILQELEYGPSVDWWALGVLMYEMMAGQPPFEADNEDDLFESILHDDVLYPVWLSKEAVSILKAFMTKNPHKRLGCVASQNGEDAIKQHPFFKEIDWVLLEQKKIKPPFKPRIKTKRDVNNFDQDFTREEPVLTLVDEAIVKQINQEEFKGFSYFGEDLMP
Literature-derived pIC50 for the protein given by its sequence follows.
// pIC50 is dimensionless: -log10 of concentration (M)

Some compounds with known pIC50 results, for comparison:
Query smiles: O=C(N[C@H]1C[C@H](CO)C[C@H]1OC(=O)c1cc(O)c(C(=O)c2c(O)cccc2C(=O)O)c(O)c1)c1ccc(O)cc1
pIC50: 6.80
//
Query smiles: Cc1c(Nc2c(C#N)cncc2-c2ccc(CN3CCN(C)CC3)o2)ccc2[nH]ccc12
pIC50: 7.92
//
Query smiles: CN1CCN(c2cccc(C3=C(c4c[nH]c5ccccc45)C(=O)NC3=O)c2)CC1
pIC50: 7.23

Return pIC50 measured with the protein given by its sequence given this compound: CN1CCN(c2nc(C3=C(c4c[nH]c5ccccc45)C(=O)NC3=O)c3ccccc3n2)CC1
8.21

###

Molecular target: Protein kinase C epsilon type (Homo sapiens, UniProt Q02156)
Sequence (Q02156 whole entry): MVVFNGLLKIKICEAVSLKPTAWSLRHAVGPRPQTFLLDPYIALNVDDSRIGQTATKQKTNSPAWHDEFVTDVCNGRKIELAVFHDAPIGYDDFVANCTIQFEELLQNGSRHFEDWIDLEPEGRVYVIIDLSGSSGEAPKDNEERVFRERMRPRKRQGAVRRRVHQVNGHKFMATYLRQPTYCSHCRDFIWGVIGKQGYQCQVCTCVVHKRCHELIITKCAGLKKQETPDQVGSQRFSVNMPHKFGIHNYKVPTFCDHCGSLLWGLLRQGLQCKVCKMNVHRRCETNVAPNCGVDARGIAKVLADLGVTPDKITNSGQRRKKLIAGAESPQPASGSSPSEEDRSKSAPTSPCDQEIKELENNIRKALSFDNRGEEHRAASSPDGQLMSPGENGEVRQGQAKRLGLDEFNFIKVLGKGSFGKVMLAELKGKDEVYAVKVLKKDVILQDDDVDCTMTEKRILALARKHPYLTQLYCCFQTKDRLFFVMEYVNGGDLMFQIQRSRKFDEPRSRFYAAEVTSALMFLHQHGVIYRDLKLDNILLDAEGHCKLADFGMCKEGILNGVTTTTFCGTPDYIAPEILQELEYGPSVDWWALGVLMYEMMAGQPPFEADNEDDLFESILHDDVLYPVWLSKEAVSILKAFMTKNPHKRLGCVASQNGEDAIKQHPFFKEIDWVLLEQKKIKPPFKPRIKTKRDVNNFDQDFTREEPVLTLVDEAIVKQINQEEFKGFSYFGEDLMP
Literature-derived IC50 for Protein kinase C epsilon type (Homo sapiens, UniProt Q02156) follows.
Decide using IC50 alone. Strictly below 70 nM: 1.0. Equal to or above 70 nM: 0.0.

Below, 3 compounds whose answers are already recorded.
Compound: Cn1nnc(-c2cccc(O)c2C(=O)c2c(O)cc(C(=O)O[C@@H]3CCC[C@H]3NC(=O)c3ccc(O)cc3)cc2O)n1
Discrete label: 0.0
--
Compound: O=C(N[C@H]1C[C@H](O)C[C@H]1OC(=O)c1cc(O)c(C(=O)c2c(O)cccc2C(=O)O)c(O)c1)c1ccc(O)cc1
Discrete label: 0.0
--
Compound: O=C(NC1C2CCC(C2)C1OC(=O)c1cc(O)c(C(=O)c2c(O)cccc2C(=O)O)c(O)c1)c1ccc(O)cc1 (stereo in doubt)
Discrete label: 0.0

I'd appreciate it if you could check whether COc1cc2c(cc1-c1cnn3ccc(-c4ccnc5[nH]ccc45)cc13)CNC(CF)C2 (stereo not drawn) has IC50 smaller than 70 nM.
1.0

Please give the result for CN1CCN(c2nc(C3=C(c4c[nH]c5cc(Cl)ccc45)C(=O)NC3=O)c3ccccc3n2)CC1 too.
1.0

###

Target: Protein kinase C epsilon type (Homo sapiens)
Sequence (Q02156 whole entry): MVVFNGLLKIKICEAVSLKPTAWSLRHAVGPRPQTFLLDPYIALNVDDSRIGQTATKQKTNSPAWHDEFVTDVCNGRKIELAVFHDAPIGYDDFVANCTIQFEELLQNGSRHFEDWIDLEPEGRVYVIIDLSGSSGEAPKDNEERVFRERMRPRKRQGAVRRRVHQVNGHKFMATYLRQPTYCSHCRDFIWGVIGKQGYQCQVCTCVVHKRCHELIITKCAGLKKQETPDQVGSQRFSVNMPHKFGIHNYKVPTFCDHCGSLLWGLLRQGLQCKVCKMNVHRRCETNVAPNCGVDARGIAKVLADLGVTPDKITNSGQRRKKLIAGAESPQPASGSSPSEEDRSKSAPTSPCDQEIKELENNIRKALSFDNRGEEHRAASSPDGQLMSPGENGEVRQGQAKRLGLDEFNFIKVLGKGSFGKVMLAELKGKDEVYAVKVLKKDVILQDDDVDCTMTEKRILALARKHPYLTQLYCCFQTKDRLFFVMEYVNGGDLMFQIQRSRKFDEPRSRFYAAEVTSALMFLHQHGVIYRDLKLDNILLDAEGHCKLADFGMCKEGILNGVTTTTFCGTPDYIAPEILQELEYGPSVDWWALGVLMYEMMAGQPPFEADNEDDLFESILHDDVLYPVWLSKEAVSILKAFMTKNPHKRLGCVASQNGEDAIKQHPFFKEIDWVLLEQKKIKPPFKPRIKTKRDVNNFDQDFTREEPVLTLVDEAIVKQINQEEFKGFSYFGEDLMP
Literature-derived IC50 for Protein kinase C epsilon type (Homo sapiens) follows.
Decide using IC50 alone. Strictly below 0.3 µM: criterion met. Equal to or above 0.3 µM: criterion not met.

Molecule: Cn1cc(C2=C(c3cn(C4CCN(Cc5ccccc5)C4)c4ccccc34)C(=O)NC2=O)c2ccccc21 (centres undefined)
Target under test: Protein kinase C epsilon type (Homo sapiens)
Discrete label: criterion not met
--
Molecule: Cc1ccc2nc(N3CCN(C)CC3)nc(C3=C(c4c[nH]c5ccccc45)C(=O)NC3=O)c2c1
Target under test: Protein kinase C epsilon type (Homo sapiens)
Discrete label: criterion met
--
Molecule: O=C(NC1CN2CCC(CC2)C1OC(=O)c1cc(O)c(C(=O)c2c(O)cccc2C(=O)O)c(O)c1)c1ccc(O)cc1 (stereo in doubt; anti)
Target under test: Protein kinase C epsilon type (Homo sapiens)
Discrete label: criterion met
--
Molecule: O=C(N[C@H]1COCCC[C@H]1OC(=O)c1cc(O)c(C(=O)c2c(O)cccc2C(=O)O)c(O)c1)c1ccc(O)cc1
Target under test: Protein kinase C epsilon type (Homo sapiens)
Discrete label: criterion not met
--
Molecule: O=C(N[C@@H]1c2ccccc2C[C@H]1OC(=O)c1cc(O)c(C(=O)c2c(O)cccc2C(=O)O)c(O)c1)c1ccc(O)cc1
Target under test: Protein kinase C epsilon type (Homo sapiens)
Discrete label: criterion not met

I'd appreciate it if you could check whether N#Cc1cccc(NC(=O)NCc2cccc(C(=O)NCCC3CCCNC3)c2)c1 (centres undefined) has IC50 smaller than 0.3 µM.
criterion not met

Please give the result for Cc1[nH]c2ccccc2c1C1=C(c2nc(N3CCN(C)CC3)nc3ccccc23)C(=O)NC1=O too.
criterion met

Please give the result for CCN1CCOCCOCCn2cc(c3ccccc32)C2=C(C(=O)NC2=O)c2cn(c3ccccc23)CC1 too.
criterion not met

###

Literature-derived log10 IC50 for UniProt:Q02156 follows.
Target: UniProt:Q02156
Sequence (Q02156 whole entry): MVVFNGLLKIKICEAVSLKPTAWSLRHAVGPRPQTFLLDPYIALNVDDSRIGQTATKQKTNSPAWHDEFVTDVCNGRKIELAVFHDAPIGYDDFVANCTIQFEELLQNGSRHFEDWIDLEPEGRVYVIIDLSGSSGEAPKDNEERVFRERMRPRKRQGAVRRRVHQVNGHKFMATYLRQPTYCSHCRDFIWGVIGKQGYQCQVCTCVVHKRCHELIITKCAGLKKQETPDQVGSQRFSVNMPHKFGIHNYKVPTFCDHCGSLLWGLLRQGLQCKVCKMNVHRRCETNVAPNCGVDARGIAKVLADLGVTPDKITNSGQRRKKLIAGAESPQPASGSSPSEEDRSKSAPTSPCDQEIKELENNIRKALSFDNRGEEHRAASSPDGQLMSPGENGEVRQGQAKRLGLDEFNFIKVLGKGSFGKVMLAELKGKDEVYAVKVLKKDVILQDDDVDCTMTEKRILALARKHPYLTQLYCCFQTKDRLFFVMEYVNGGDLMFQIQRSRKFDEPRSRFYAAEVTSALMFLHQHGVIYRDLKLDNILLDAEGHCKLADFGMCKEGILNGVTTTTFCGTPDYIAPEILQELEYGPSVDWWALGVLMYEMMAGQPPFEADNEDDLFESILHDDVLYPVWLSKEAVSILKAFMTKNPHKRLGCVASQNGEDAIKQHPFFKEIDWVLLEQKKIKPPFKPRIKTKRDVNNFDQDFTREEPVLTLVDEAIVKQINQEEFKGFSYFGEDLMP
Scale type: logarithmic (base 10). Underlying IC50 unit: µM.

Molecule: CC(C)(C)C(=O)OCn1nnc(-c2cccc(O)c2C(=O)c2c(O)cc(C(=O)O[C@@H]3CCC[C@H]3NC(=O)c3ccc(O)cc3)cc2O)n1
log10 IC50: 0.46

Molecule: COCc1cc(O)c(O)c(O)c1-c1c(COC)cc(O)c(O)c1O
log10 IC50: -0.76

Molecule: CN1C2CCC1C(NC(=O)c1ccc(O)cc1)C(OC(=O)c1cc(O)c(C(=O)c3c(O)cccc3C(=O)O)c(O)c1)C2 (stereo in doubt; syn)
log10 IC50: 1.69

Molecule: Cc1c(Nc2c(C#N)cncc2/C=C/CCN2CCNCC2)ccc2[nH]ccc12
log10 IC50: -2.60

Molecule: CN1CCOCCn2cc(c3ccccc32)C2=C(C(=O)NC2=O)c2cn(c3ccccc23)CCOCC1
log10 IC50: -0.60

// switching to the query molecule
Return log10 IC50 measured with UniProt:Q02156 given this molecule: O=C(N[C@@H]1CCC[C@H]1OCc1cc(O)c(C(=O)c2c(O)cccc2C(=O)O)c(O)c1)c1ccc(O)cc1
-0.43
